Measured values drawn from patent US6222035A for this set.

test system: CGS 21680-induced catalepsy in mice; assay: Activity on CGS 21680-induced Catalepsy; type: in vivo, mouse (male ddY); settings: 10 mg/kg oral; catalepsy score 4 points or less in 10 cases
Counter-ions that a name gives are not always drawn.
Assign Number of Animals showing remission to each entry below.
Give bare numbers.

A selection of reference data follows.
- compound: "CC(C)N1CCN(c2cc3nc(-c4ccco4)nn3c(N)n2)CC1"
  Number of Animals showing remission: 9
- compound: "COc1ccc(Oc2cc3nc(-c4ccco4)nn3c(N)n2)cc1OC"
  Number of Animals showing remission: 9
- compound: "CC(C)NC(=O)c1cnc(N)n2nc(-c3ccco3)nc12"
  Number of Animals showing remission: 9
- compound: "CCOCCN1CCN(c2cc3nc(-c4ccco4)nn3c(N)n2)CC1"
  Number of Animals showing remission: 9
- compound: "Nc1nc(N2CCN(Cc3ccccc3)CC2)cc2nc(-c3ccco3)nn12"
  Number of Animals showing remission: 9
- compound: "Nc1nc(N2CCN(Cc3ccccc3F)CC2)cc2nc(-c3ccco3)nn12"
  Number of Animals showing remission: 10

Give Number of Animals showing remission for each of the items listed below.
1. Nc1nc(N2CCN(CCO)CC2)cc2nc(-c3ccco3)nn12
2. CCCCN1CCN(c2cc3nc(-c4ccco4)nn3c(N)n2)CC1
3. CCCN1CCN(c2cc3nc(-c4ccco4)nn3c(N)n2)CC1
4. C[C@@H]1CN(c2cc3nc(-c4ccco4)nn3c(N)n2)C[C@H](C)N1CCO
5. Nc1nc(Oc2ccc(Br)cc2)cc2nc(-c3ccco3)nn12
6. Nc1nc(N2CCN(CCc3ccccc3)CC2)cc2nc(-c3ccco3)nn12

Result:
1. 10
2. 9
3. 10
4. 10
5. 8
6. 10

The following compounds each have a reported value; give each one's Number of Animals showing remission.
1. COCCN1CCN(c2nc(N)n3nc(-c4ccco4)nc3c2C)CC1
2. Nc1nc(N2CCN(CCF)CC2)cc2nc(-c3ccco3)nn12

Result:
1: 9; 2: 9

// for each compound below, give its Number of Animals showing remission
1. CNC(=O)c1cnc(N)n2nc(-c3ccco3)nc12
2. Nc1nc(N2CCN(CCOCc3ccccc3)CC2)cc2nc(-c3ccco3)nn12 [Compound 97, hydrochloride]
3. Nc1nc(N2CCN(C/C=C/c3ccccc3)CC2)cc2nc(-c3ccco3)nn12
4. Nc1nc(N2CCN(CCOCCO)CC2)cc2nc(-c3ccco3)nn12

Result:
1. 10
2. 10
3. 10
4. 10

For every record below, what is its Number of Animals showing remission?
1. CCN1CCN(c2cc3nc(-c4ccco4)nn3c(N)n2)CC1
2. Nc1nc(N2CCN(Cc3cnns3)CC2)cc2nc(-c3ccco3)nn12

Result:
1: 8; 2: 9

---

test system: CGS 21680-induced catalepsy in mice; test: Activity on CGS 21680-induced Catalepsy; assay type: in vivo, mouse (male ddY); details: 10 mg/kg oral; catalepsy score 4 points or less in 10 cases
Hi there, I'd appreciate the recorded Number of Animals showing remission for every entry that follows.
Numbers only.

The following compounds have reported results that may help.
- compound: "CC(C)OCCCN1CCN(c2cc3nc(-c4ccco4)nn3c(N)n2)CC1 [Compound 101]"
  measurement_kind: "Number of Animals showing remission"
  endpoint_value: 10
- compound: "Nc1nc(N2CCN(CCCc3ccccc3)CC2)cc2nc(-c3ccco3)nn12 [Compound 63]"
  measurement_kind: "Number of Animals showing remission"
  endpoint_value: 10
- compound: "COCCCN1CCN(c2cc3nc(-c4ccco4)nn3c(N)n2)CC1 [Compound 99]"
  measurement_kind: "Number of Animals showing remission"
  endpoint_value: 10

Report Number of Animals showing remission for every entry below.
1. C[C@@H]1CN(c2cc3nc(-c4ccco4)nn3c(N)n2)C[C@H](C)N1Cc1ccccc1 [Compound 116]
2. CC(C)CN1CCN(c2cc3nc(-c4ccco4)nn3c(N)n2)CC1 [Compound 136]
3. CCOC(=O)c1cnc(N)n2nc(-c3ccco3)nc12 [Compound 55]
4. Nc1nc(N2CCN(c3nc4ccccc4s3)CC2)cc2nc(-c3ccco3)nn12 [Compound 95]
5. COc1ccc(CCCN2CCN(c3cc4nc(-c5ccco5)nn4c(N)n3)CC2)cc1OC [Compound 86]
6. CCOCCCN1CCN(c2cc3nc(-c4ccco4)nn3c(N)n2)CC1 [Compound 100]

Result:
1: 10; 2: 10; 3: 9; 4: 8; 5: 9; 6: 10

---

Provide the recorded Total score (catalepsy) for the entries that follow.
system: CGS 21680-induced catalepsy in mice; assay: Activity on CGS 21680-induced Catalepsy; type: in vivo, mouse (male ddY); conditions: 10 mg/kg oral, 10 animals, maximum 50 points; control 48
Where a name gives a salt, the structure may show the parent alone.
Answers are plain numbers.

Here is how some molecules turned out for Total score (catalepsy).
- molecule: "Nc1nc(N2CCN(Cc3ccccc3)CC2)cc2nc(-c3ccco3)nn12"
  Total score (catalepsy): 12
- molecule: "Nc1nc(SCc2ccccc2C=O)cc2nc(-c3ccco3)nn12"
  Total score (catalepsy): 15
- molecule: "CC(C)NC(=O)c1cnc(N)n2nc(-c3ccco3)nc12"
  Total score (catalepsy): 13
- molecule: "Nc1nc(SCc2ccccc2Cl)cc2nc(-c3ccco3)nn12"
  Total score (catalepsy): 14

Please report Total score (catalepsy) for every entry that follows.
1. Nc1nc(N2CCN(Cc3ccccn3)CC2)cc2nc(-c3ccco3)nn12
2. C[C@@H]1CN(c2cc3nc(-c4ccco4)nn3c(N)n2)C[C@H](C)N1CCO
3. CC(C)CN1CCN(c2cc3nc(-c4ccco4)nn3c(N)n2)CC1
4. COc1cc(CN2CCN(c3cc4nc(-c5ccco5)nn4c(N)n3)CC2)cc(OC)c1OC
5. CC(C)N1CCN(c2cc3nc(-c4ccco4)nn3c(N)n2)CC1
6. Nc1nc(N2CCN(Cc3c(Cl)cccc3Cl)CC2)cc2nc(-c3ccco3)nn12 [Compound 80, hydrochloride]

Result:
1. 9
2. 3
3. 1
4. 21
5. 10
6. 3

Go through the list and state Total score (catalepsy) for each entry.
1. C[C@@H]1CN(c2cc3nc(-c4ccco4)nn3c(N)n2)C[C@H](C)N1C [Compound 115, hydrochloride]
2. Nc1nc(N2CCN(CCCc3cccnc3)CC2)cc2nc(-c3ccco3)nn12 [Compound 87, hydrochloride]
3. CCC(=O)c1cnc(N)n2nc(-c3ccco3)nc12
4. Nc1nc(SCc2ccncc2)cc2nc(-c3ccco3)nn12

Result:
[5, 14, 23, 14]

Below is a list of molecules. For each, state its recorded Total score (catalepsy).
1. CC(C)OCCCN1CCN(c2cc3nc(-c4ccco4)nn3c(N)n2)CC1
2. COc1ccc(CCCN2CCN(c3cc4nc(-c5ccco5)nn4c(N)n3)CC2)cc1OC
3. N#Cc1ccccc1CSc1cc2nc(-c3ccco3)nn2c(N)n1

Result:
1. 8
2. 13
3. 15

Request: Param item = Nc1nc(N2CCN(CCOCCO)CC2)cc2nc(-c3ccco3)nn12 ; retrieve measured Total score (catalepsy).
Result: 2

---

test system: CGS 21680-induced catalepsy in mice; assay: Activity on CGS 21680-induced Catalepsy; format: in vivo, mouse (male ddY); conditions: 10 mg/kg oral; catalepsy score 4 points or less in 10 cases
Structures can show the parent of a compound that is named as a salt.
measurement_kind: Number of Animals showing remission
Answers are plain numbers.

- compound: "C=CCCN1CCN(c2cc3nc(-c4ccco4)nn3c(N)n2)CC1 [Compound 125]"
  system_name: "CGS 21680-induced catalepsy in mice"
  measurement_kind: "Number of Animals showing remission"
  endpoint_value: 10
- compound: "Nc1ncc(C(=O)N2CCOCC2)c2nc(-c3ccco3)nn12 [Compound 177]"
  system_name: "CGS 21680-induced catalepsy in mice"
  measurement_kind: "Number of Animals showing remission"
  endpoint_value: 9
- compound: "CC(C)C(=O)c1cnc(N)n2nc(-c3ccco3)nc12 [Compound 153]"
  system_name: "CGS 21680-induced catalepsy in mice"
  measurement_kind: "Number of Animals showing remission"
  endpoint_value: 9
- compound: "C[C@@H]1CN(c2cc3nc(-c4ccco4)nn3c(N)n2)C[C@H](C)N1C [Compound 115, hydrochloride]"
  system_name: "CGS 21680-induced catalepsy in mice"
  measurement_kind: "Number of Animals showing remission"
  endpoint_value: 10
- compound: "CCNC(=O)c1cnc(N)n2nc(-c3ccco3)nc12 [Compound 169]"
  system_name: "CGS 21680-induced catalepsy in mice"
  measurement_kind: "Number of Animals showing remission"
  endpoint_value: 10
- compound: "Nc1nc(SCc2ccccc2F)cc2nc(-c3ccco3)nn12 [Compound 201]"
  system_name: "CGS 21680-induced catalepsy in mice"
  measurement_kind: "Number of Animals showing remission"
  endpoint_value: 10

Provide each entry's Number of Animals showing remission from the list below.
1. COC(=O)c1ccc(CSc2cc3nc(-c4ccco4)nn3c(N)n2)cc1 [Compound 190]
2. Nc1ncc(C=O)c2nc(-c3ccco3)nn12 [Compound 163]
3. CC(O)CN1CCN(c2cc3nc(-c4ccco4)nn3c(N)n2)CC1 (racemic) [Compound 105]

Result:
[10, 10, 10]
